src = patent US9718782B2

Target entity: TrkA receptor (Homo sapiens, UniProt P04629)
Sequence (P04629 33-796): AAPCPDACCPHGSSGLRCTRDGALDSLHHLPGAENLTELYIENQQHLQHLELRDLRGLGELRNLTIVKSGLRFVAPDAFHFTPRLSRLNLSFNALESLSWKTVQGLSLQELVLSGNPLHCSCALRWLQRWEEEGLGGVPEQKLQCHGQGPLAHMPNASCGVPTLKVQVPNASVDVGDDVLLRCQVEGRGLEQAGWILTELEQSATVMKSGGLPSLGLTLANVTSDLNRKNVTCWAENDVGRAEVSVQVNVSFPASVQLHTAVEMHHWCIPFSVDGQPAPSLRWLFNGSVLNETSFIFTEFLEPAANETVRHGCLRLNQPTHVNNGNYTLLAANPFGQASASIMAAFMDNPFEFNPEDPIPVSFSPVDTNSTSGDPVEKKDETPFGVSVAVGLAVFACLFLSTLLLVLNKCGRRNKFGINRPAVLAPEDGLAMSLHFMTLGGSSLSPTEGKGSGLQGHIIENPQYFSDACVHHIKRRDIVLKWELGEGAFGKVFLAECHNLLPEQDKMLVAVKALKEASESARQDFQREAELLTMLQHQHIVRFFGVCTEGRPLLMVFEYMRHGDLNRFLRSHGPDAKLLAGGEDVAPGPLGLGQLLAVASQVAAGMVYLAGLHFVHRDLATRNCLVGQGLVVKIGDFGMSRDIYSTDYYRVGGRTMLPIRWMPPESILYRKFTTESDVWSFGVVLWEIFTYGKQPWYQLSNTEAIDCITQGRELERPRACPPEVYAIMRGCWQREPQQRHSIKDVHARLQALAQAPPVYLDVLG
Protocol notes: DiscoverX PathHunter TrkA functional assay (NGF-stimulated U2OS cells)
Run parameters: U2OS cells expressing TrkA-Prolink fusion and Shc1-EA; compound 1 hour, then EC80 NGF 3 hours; luminescence
Observed property: IC50 (nM)

O=C(Nc1cccnc1-c1ccncc1)NC1c2ccccc2-c2ccccc21 | 880
Cc1ccc(NC(=O)NC2c3ccccc3-c3ccccc32)c(F)n1 | 3200
CN(C)C(=O)c1cccc(NC(=O)NC2c3ccccc3-c3ccccc32)c1 | 670

(I) Cc1nn(-c2ccc(F)cc2)c(NC(=O)NC2c3ccccc3-c3ccccc32)c1C#N
(II) Cn1nnc(-c2cccc(NC(=O)NC3c4ccccc4-c4ccccc43)c2)n1
(III) O=C(Nc1cccnc1-n1cccn1)NC1c2ccccc2-c2ccccc21
Please list the entries, largest IC50 first. Arrange the labels as the request states and list them.
III, II, I

(a) O=C(Nc1ccccc1-c1ccccc1)NC1c2ccccc2-c2ccccc21
(b) Cn1ccnc1-c1cccc(NC(=O)NC2c3ccccc3-c3ccccc32)c1
(c) Cc1ncc(NC(=O)NC2c3ccccc3Oc3ccccc32)c(-c2ccccc2)n1
(d) O=C(Nc1conc1-c1ccccc1)NC1c2ccccc2-c2ccccc21
Rank descending by IC50. # list labels per requested ordering
d, a, b, c
